Biological target: benzodiazepine (BZ) receptor
Test: in vitro benzodiazepine receptor binding of the compound of formula I (saturation, rat cerebral cortical tissue)
Design: species or system rat (male, Sprague-Dawley)
Settings: 0 °C; 60 min incubation, pH 7.7
Quantity: pKd
pKd here: minus log base 10 of the concentration, concentration in moles per litre.

Task: Data request, read-out pKd, for [3H]c1cc(Cl)cc2c1C1=C(CN=C2c2ccccc2Cl)C(=O)NC1 [compound of formula I]
Output: 9.74

* * *

Molecular target: benzodiazepine (BZ) receptor
Experiment: in vitro benzodiazepine receptor binding of the compound of formula I (saturation, rat cerebral cortical tissue)
Set-up: species or system rat (male, Sprague-Dawley)
Conditions: 37 °C; 60 min incubation, pH 7.7
Quantity: Kd (nM)
Give just the number in nM; leave the unit off.

Task: Data request, read-out Kd, for "[3H]c1cc(Cl)cc2c1C1=C(CN=C2c2ccccc2Cl)C(=O)NC1"
Output: 0.82
